# TEST: NCI Yeast Anticancer Drug Screen. Data for the cln2 rad14 strain (AID 165)
# CONDITIONS: S. cerevisiae cln2 rad14 strain, at 5.0 µM (retest, dose inferred, filed as 0.5), active compounds read high
This is part of a sample that, as a whole, favours compounds with a hit. Of some 79,000 tested, about 15% had one in any assay.
growth inhibition below 2% gives condition not met; growth inhibition at or above it gives condition met.

[
  {
    "COMPOUND": "COc1ccc(OC(C)=O)c2c1CCC=CC2=O",
    "GROUP": "condition met"
  },
  {
    "COMPOUND": "CC(=O)Nc1cccc(Oc2ccc(Br)cc2[N+](=O)[O-])c1",
    "GROUP": "condition not met"
  },
  {
    "COMPOUND": "Cc1c[nH]c2c(O)cc3c(c12)[C@H](CCl)CN3C(=O)c1cc2cc(NC(=O)Nc3ccc4[nH]c(C(=O)N5C[C@@H](CCl)c6c5cc(O)c5[nH]cc(C)c65)cc4c3)ccc2[nH]1",
    "GROUP": "condition met"
  },
  {
    "COMPOUND": "O=C(Nc1ccc([N+](=O)[O-])cc1[N+](=O)[O-])C(=O)C(C(=O)c1ccc(Cl)c(Cl)c1)C1OC(=O)c2ccccc21 (stereo unspecified)",
    "GROUP": "condition met"
  },
  {
    "COMPOUND": "CC(=O)OC1CCCCCCCCCCC12OCCO2 (stereo unspecified)",
    "GROUP": "condition not met"
  }
]
